B1: Caulobacter ParB omega fusion; a variant is named by its letters at X, in order, B8GW30 (parent)
chain: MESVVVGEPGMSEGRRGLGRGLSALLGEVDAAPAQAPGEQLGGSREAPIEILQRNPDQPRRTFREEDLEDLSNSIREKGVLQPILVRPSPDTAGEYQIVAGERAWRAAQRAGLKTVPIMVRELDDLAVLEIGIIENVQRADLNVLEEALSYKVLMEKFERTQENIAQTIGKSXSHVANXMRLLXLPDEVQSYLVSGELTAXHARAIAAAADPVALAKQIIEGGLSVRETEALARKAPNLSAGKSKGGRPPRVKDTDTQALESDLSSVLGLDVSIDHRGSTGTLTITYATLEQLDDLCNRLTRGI

# Variants of: B1
# assay.name: one-hybrid fitness for binding NBS DNA (the Noc-binding site; scaled: cognate 1, non-cognate 0); higher = stronger binding
# test.conditions: with NBS DNA site
Over roughly 81,000 sequences, “one-hybrid fitness for binding NBS DNA” has its median near -0.1; the highest 2% begin near 0.36. The list comes from a sample in which the highest values are over-represented; it also holds close analogues and randomly drawn sequences.
Exercise: for every item that follows, state its recorded one-hybrid fitness for binding NBS DNA.

Entry `KKIT` has what one-hybrid fitness for binding NBS DNA? ≤ 0.2

Returns the measured one-hybrid fitness for binding NBS DNA for the input variant. Input: `QTIH` 0.221

Using the record for `QCAA` , report its one-hybrid fitness for binding NBS DNA. 0.393

Any idea what one-hybrid fitness for binding NBS DNA was measured for `ANST` ? ≤ 0.2

Item under review: `DSVS` . Reported one-hybrid fitness for binding NBS DNA? ≤ 0.2

Query: one-hybrid fitness for binding NBS DNA; subject: `DVLM` ≤ 0.2

What measured one-hybrid fitness for binding NBS DNA goes with `VVTF` ? ≤ 0.2

What value of measured one-hybrid fitness for binding NBS DNA is listed for `GPWL` ? ≤ 0.2

Bench note: what one-hybrid fitness for binding NBS DNA did `QLRD` show? ≤ 0.2

Could you share which one-hybrid fitness for binding NBS DNA value was measured for `QLFR` ? 0.329

I would be grateful if you could share the reported one-hybrid fitness for binding NBS DNA for `QPLS` . ≤ 0.2

Dear colleague, I am looking for the recorded one-hybrid fitness for binding NBS DNA of the following variant: `QTYS` 0.507

For the variant `LTRI` , what one-hybrid fitness for binding NBS DNA is on record? ≤ 0.2

Fill blank: measured one-hybrid fitness for binding NBS DNA of the variant `NIHC` is ____. ≤ 0.2

Look at this variant and give its reported one-hybrid fitness for binding NBS DNA. `KSYC` ≤ 0.2

Returns the measured one-hybrid fitness for binding NBS DNA for the input variant. Input: `EVHL` ≤ 0.2

Look up one-hybrid fitness for binding NBS DNA for this variant: `QDAC` ≤ 0.2

Reported one-hybrid fitness for binding NBS DNA, variant `QTPS` : ____ 0.314

Quick one: one-hybrid fitness for binding NBS DNA for `ITKV` ? ≤ 0.2

Quick one: one-hybrid fitness for binding NBS DNA for `LLCL` ? ≤ 0.2

Which one-hybrid fitness for binding NBS DNA is listed for `IYRI` ? ≤ 0.2

Give the measured one-hybrid fitness for binding NBS DNA of `RINQ` . ≤ 0.2

Any idea what one-hybrid fitness for binding NBS DNA was measured for `QLAP` ? ≤ 0.2

For the variant shown here, `QLPR` , give the reported one-hybrid fitness for binding NBS DNA. 0.232

Please give the measured one-hybrid fitness for binding NBS DNA for this variant: `QSAA` 0.273

Which measured one-hybrid fitness for binding NBS DNA value corresponds to `QLSP` ? ≤ 0.2

Using the record for `YSQQ` , report its one-hybrid fitness for binding NBS DNA. ≤ 0.2

If you can, please state the reported one-hybrid fitness for binding NBS DNA value of `LYTW` . ≤ 0.2

What value of measured one-hybrid fitness for binding NBS DNA is listed for `NMWY` ? ≤ 0.2

Fill in: one-hybrid fitness for binding NBS DNA of `NTKA` is ___ ≤ 0.2

Quick one: one-hybrid fitness for binding NBS DNA of `SGLS` ? ≤ 0.2

# lookup: one-hybrid fitness for binding NBS DNA of `QTIS` 0.398

# get_value(readout='one-hybrid fitness for binding NBS DNA', item= `QFSY` ) ≤ 0.2

Which one-hybrid fitness for binding NBS DNA value belongs to `VFPS` ? ≤ 0.2

I would be grateful if you could share the reported one-hybrid fitness for binding NBS DNA for `QTCP` . ≤ 0.2

Quick one: one-hybrid fitness for binding NBS DNA for `QYDA` ? ≤ 0.2

Bench note: what one-hybrid fitness for binding NBS DNA did `QLYR` show? 0.425
